# TARGET_UNDER_TEST: GDP-bound KRAS protein (aa 1-169), containing both G12C and C118A amino acid substitutions (Homo sapiens (Human), UniProt P01116, C118A/G12C)
# Sequence (P01116 other isoform, or with tags, fused parts or gaps G12C/C118A): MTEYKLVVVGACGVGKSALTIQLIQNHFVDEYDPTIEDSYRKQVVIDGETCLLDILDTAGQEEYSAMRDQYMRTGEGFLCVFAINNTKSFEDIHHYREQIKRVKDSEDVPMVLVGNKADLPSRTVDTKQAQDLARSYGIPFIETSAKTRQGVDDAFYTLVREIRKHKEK
# EXPERIMENT_SUMMARY: Coupled nucleotide exchange assay (SOS-mediated nucleotide exchange, AlphaScreen)
# Assay type: biochemical
# CONDITION: read-out: Coupled exchange IC50 (5 min; μM); 5 min compound pre-incubation
Classification by IC50 | ranges: bottom range = under 0.08 µM, center range = from 0.08 µM up to 0.6 µM, top range = 0.6 µM and over

MOLECULE	LABEL_VALUE
C=CC(=O)N1C[C@@H](C)N(c2nc(=O)n(-c3c(C(C)C)ncnc3C(C)C)c3nc(-c4ccccc4F)c(F)cc23)[C@@H](C)C1 [Example 101-3]	center range
C=CC(=O)N1C[C@H](C)N(c2nc(=O)n(C(C)C)c3nc(-c4ccccc4F)c(Cl)cc23)C[C@H]1C [Example 55-60]	top range
C=CC(=O)N1C[C@H](C)N(c2nc(=O)n(-c3c(C)ccnc3C(C)C)c3nc(-c4ccc(F)cc4)c(Cl)cc23)C[C@H]1C (atropisomer, axis not shown; (M)) [Example 92-57]	center range
C=CC(=O)N1[C@H](C)CN(c2nc(=O)n(-c3c(C(C)C)ccnc3C(C)C)c3nc(-c4ccccc4C)c(Cl)cc23)C[C@@H]1C [Example 125-11]	center range
C=CC(=O)N1C[C@H](C)N(c2nc(=O)n(-c3c(CN4CCCC4)cccc3C(C)C)c3nc(-c4ccccc4F)c(Cl)cc23)C[C@H]1C (single isomer, unassigned) [Example 80-10-1]	top range
C=CC(=O)N1C[C@H](C)N(c2nc(=O)n(-c3c(CN(C)C)cccc3C(C)C)c3nc(-c4ccccc4F)c(Cl)cc23)C[C@H]1C (single isomer, unassigned) [Example 80-14-2]	bottom range
C=CC(=O)N1C[C@H](C)N(c2nc(=O)n(-c3c(C)ccnc3C(C)C)c3nc(-c4cc(O)cc5ccccc45)c(F)cc23)C[C@H]1C (atropisomer, axis not shown; (M)) [Example 132-2]	center range
C=CC(=O)N1C[C@H](C)N(c2nc(=O)n(-c3c(C(C)C)nc(N4CCC4)nc3C(C)C)c3nc(-c4ccccc4F)c(Cl)cc23)C[C@H]1C [Example 107-5]	center range
C=CC(=O)N1C[C@H](C)N(c2nc(=O)n(-c3c(C)ccnc3C(C)C)c3nc(-c4cccc(Cl)c4F)c(Cl)cc23)C[C@H]1C (atropisomer, axis not shown; (M)) [Example 92-46]	bottom range
C=CC(=O)N1C[C@H](C)N(c2nc(=O)n(-c3c(C)ccnc3C(C)C)c3nc(-c4ccc(F)cc4F)c(Cl)cc23)C[C@H]1C (atropisomer, axis not shown; (M)) [Example 92-61]	bottom range
C=CC(=O)N1C[C@H](C)N(c2nc(=O)n(-c3c(C)ccnc3C(C)C)c3nc(CC(C)(C)C)c(Cl)cc23)C[C@H]1C (atropisomer, axis not shown; (M)) [Example 95-2]	top range
C=CC(=O)N1CCN(c2nc(=O)n(CC(C)(C)C)c3nc(-c4ccccc4F)c(Cl)cc23)CC1CC#N (single isomer, unassigned) [Example 145-1-2]	top range
C=CC(=O)N1CCN(c2nc(CN3CCOCC3)c(-c3ccccc3C(C)C)c3nc(-c4ccccc4F)c(Cl)cc23)CC1 [Example 181]	top range
C=CC(=O)N1C[C@H](C)N(c2nc(=O)n(-c3c(C(C)C)ncnc3C(C)C)c3nc(-c4ccccc4F)c(F)cc23)C[C@H]1C [Example 101-2]	center range
C=CC(=O)N1C[C@H](C)N(c2nc(=O)n(-c3c(C(C)C)ccnc3C(C)C)c3nc(-c4ccccc4C(F)(F)F)c(Cl)cc23)C[C@H]1C (single isomer, unassigned) [Example 124-3]	bottom range
C=CC(=O)N1C[C@H](C)N(c2nc(=O)n(-c3c(CN4CCC4)cccc3C(C)C)c3nc(-c4ccccc4F)c(Cl)cc23)C[C@H]1C [Example 80-12]	bottom range
C=CC(=O)N1C[C@H](C)N(c2nc(=O)n(-c3c(C)ccnc3C(C)C)c3nc(-c4cccc(C)c4)c(Cl)cc23)C[C@H]1C (atropisomer, axis not shown; (M)) [Example 92-53]	center range
C=CC(=O)N1C[C@H](C)N(c2nc(=O)n(-c3c(C)ccnc3C(C)C)c3nc(-c4c(F)cccc4NC(=O)C(F)F)c(Cl)cc23)C[C@H]1C (atropisomer, axis not shown; (M)) [Example 129-10]	bottom range
C=CC(=O)N1CCN(c2nc(=O)n(-c3c(C)ccnc3C(C)C)c3nc(-c4c(O)cccc4F)c(F)cc23)C(C)C1C (single isomer, unassigned) [Example 124-16-2]	top range

====

# TARGET_UNDER_TEST: GDP-bound KRAS protein (aa 1-169), containing both G12C and C118A amino acid substitutions (Homo sapiens (Human), UniProt P01116, C118A/G12C)
# EXPERIMENT_SUMMARY: Coupled nucleotide exchange assay (SOS-mediated nucleotide exchange, AlphaScreen)
# Format: biochemical
# CONDITION: read-out: Coupled exchange IC50 (5 min; μM); 5 min compound pre-incubation
Threshold 8 µM. IC50 below it: met. IC50 at it or above: not met.

MOLECULE	LABEL_VALUE
C=CC(=O)N1C[C@H](C)N(c2nc(=O)n3c4nc(c(Cl)cc24)-c2ccccc2C/C=C\Cc2cccc(C(C)C)c2-3)C[C@H]1C (single isomer, unassigned) [Example 146-1-2]	not met
C=CC(=O)N1CCN(c2nc(=O)n(CC(C)(C)C#N)c3nc(-c4ccccc4F)c(Cl)cc23)CC1 [Example 106-10]	not met
C=CC(=O)N1C[C@H](C)N(c2nc(=O)n(-c3c(C(C)C)cnnc3C(C)C)c3nc(-c4ccccc4F)c(Cl)cc23)C[C@H]1C [Example 205]	met
C=CC(=O)N1C[C@H](C)N(C2=NCC(=O)N(c3c(C)ccnc3C(C)C)c3nc(-c4ccccc4F)c(Cl)cc32)C[C@H]1C [Example 219]	not met
C=CC(=O)N1C[C@H](C)N(c2nc(=O)n(-c3c(C)cc(P(C)(C)=O)cc3C(C)C)c3nc(-c4ccccc4F)c(Cl)cc23)C[C@H]1C (single isomer, unassigned) [Example 102-7-2]	met
C=CC(=O)N1C[C@H](C)N(c2nc(=O)n(-c3c(C)ccnc3C(C)C)c3nc(-c4ccccc4F)c(C)nc23)C[C@H]1C (single isomer, unassigned) [Example 225-2]	met
C=CC(=O)N1C[C@H](C)N(c2nc(=O)n(-c3c(C(C)C)nc(C=C)nc3C(C)C)c3nc(-c4ccccc4F)c(Cl)cc23)C[C@H]1C [Example 159]	met
C=CC(=O)N1CCN(c2nc(=O)n(-c3c(C)ccnc3C(C)C)c3nc(Cl)c(Cl)cc23)CC1CC#N (atropisomer, axis not shown; (M)) [Example 144-2-2]	not met
C=CC(=O)N1CCN(c2nc(=O)n(-c3c(C)ccnc3C(C)C)c3nc(-c4ccccc4F)c(Cl)cc23)[C@@H]2C[C@@H]21 (atropisomer, axis not shown; (M)) [Example 222-1]	met
C=CC(=O)N1[C@H](C)CN(c2nc(=O)n(-c3c(C)ccnc3C(C)C)c3nc(-c4ccccc4F)c(Cl)nc23)C[C@@H]1C [Example 224]	met
C=CC(=O)N1C[C@H](C)N(c2nc(=O)n(-c3c(C)ncnc3C(C)C)c3nc(-c4ccccc4F)c(Cl)cc23)C[C@H]1C [Example 194]	met

====

# TARGET_UNDER_TEST: GDP-bound KRAS protein (aa 1-169), containing both G12C and C118A amino acid substitutions (Homo sapiens (Human), UniProt P01116, C118A/G12C)
# EXPERIMENT_SUMMARY: Coupled nucleotide exchange assay (SOS-mediated nucleotide exchange, AlphaScreen)
# Type: biochemical
# CONDITION: read-out: Coupled exchange IC50 (5 min; μM); 5 min compound pre-incubation
IC50: recorded values
MEASURED_QUANTITY: IC50 (µM)

MOLECULE	READOUT_UNITS	RESULT_VALUE
C=CC(=O)N1C[C@H](C)N(c2nc(=O)n(-c3c(C)cc(CN(C)C)cc3C(C)C)c3nc(-c4ccccc4F)c(F)cc23)C[C@H]1C (single isomer, unassigned) [Example 80-20-1]	µM	13.9
C=CC(=O)N1C[C@H](C)N(c2nc(=O)n3c4nc(c(Cl)cc24)-c2ccccc2OC/C=C/Cc2ccccc2-3)C[C@H]1C	µM	8.13
C=CC(=O)N1C[C@H](C)N(c2nc(=O)n(-c3c(CN(C)C)ccnc3C(C)C)c3nc(-c4ccccc4F)c(Cl)cc23)C[C@H]1C (single isomer, unassigned) [Example 80-16-2]	µM	0.903

====

IC50: recorded values
# TARGET_UNDER_TEST: GDP-bound KRAS protein (aa 1-169), containing both G12C and C118A amino acid substitutions (Homo sapiens (Human), UniProt P01116, C118A/G12C)
# EXPERIMENT_SUMMARY: Coupled nucleotide exchange assay (SOS-mediated nucleotide exchange, AlphaScreen)
# Type: biochemical
# CONDITION: read-out: Coupled exchange IC50 (5 min; μM); 5 min compound pre-incubation

MOLECULE	IC50, µM
C=CC(=O)N1CCN(c2nc(=O)n(CC(C)(C)C)c3nc(-c4ccccc4F)c(Cl)cc23)CC1CC#N (single isomer, unassigned) [Example 145-1-1]	1.71
C=CC(=O)N1C[C@H](C)N(c2nc(=O)n3c4nc(c(Cl)cc24)-c2ccccc2C/C=C/Cc2cccc(C(C)C)c2-3)C[C@H]1C (atropisomer, axis not shown; (M)) [Example 146-2]	0.028
C=CC(=O)N1C[C@H](C)N(C2=NC(=O)CN(c3c(C)ccnc3C(C)C)c3nc(-c4ccccc4F)c(Cl)cc32)C[C@H]1C [Example 218]	0.094
C=CC(=O)N1C[C@H](C)N(c2nc(=O)n(-c3c(C)ccnc3C(C)C)c3nc(-c4ccccc4OC)c(Cl)cc23)C[C@H]1C (atropisomer, axis not shown; (M)) [Example 92-67]	0.13
C=CC(=O)N1C[C@H](C)N(c2nc(=O)n(-c3c(C)ccnc3C(C)C)c3nc(-c4ccccc4F)c(C)nc23)C[C@H]1C (single isomer, unassigned) [Example 225-1]	7.62
